# RA (relative affinity) annotations
molecular target: HLA A2.1 molecule (human); assay: T2 cells, flow cytometry (BB7.2); reference HIVpol 589

Example results:
LLGCAANWIL (modifications not checked) [HBVpol 765] | 2
VMAGVGSPYV (modifications not checked) [HER-2/neu 773] | 1.7

For this binder ( MLGTHTMEV (modifications not checked) [gp100 178] ), measured RA (relative affinity) is 0.3

For this binder ( KLTGDENFTI (modifications not checked) [Tyrosinase 224] ), measured RA (relative affinity) is > 50

For this binder ( QLMPYGCLL (modifications not checked) [HER-2/neu 799] ), measured RA (relative affinity) is 1
